pKi: −log10 of the molar value.
Quick record of pKi values for UniProtKB P31390.
Sequence (P31390 whole entry): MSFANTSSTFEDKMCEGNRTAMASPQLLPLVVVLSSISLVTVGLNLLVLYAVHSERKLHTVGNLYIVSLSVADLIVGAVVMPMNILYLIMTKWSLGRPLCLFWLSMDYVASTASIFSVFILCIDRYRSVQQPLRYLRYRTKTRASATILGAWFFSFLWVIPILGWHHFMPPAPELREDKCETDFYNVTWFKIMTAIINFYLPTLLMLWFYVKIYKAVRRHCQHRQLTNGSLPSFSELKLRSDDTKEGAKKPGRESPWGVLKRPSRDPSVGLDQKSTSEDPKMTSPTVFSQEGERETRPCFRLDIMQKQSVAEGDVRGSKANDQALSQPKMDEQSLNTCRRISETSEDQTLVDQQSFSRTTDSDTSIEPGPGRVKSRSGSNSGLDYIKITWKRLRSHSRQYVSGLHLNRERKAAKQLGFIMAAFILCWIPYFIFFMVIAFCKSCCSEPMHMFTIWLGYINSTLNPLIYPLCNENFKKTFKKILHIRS
reported.property: pKi

Past entries and their recorded results:
molecule	system	observed.measurement
CN(CCCCc1c[nH]cn1)CCC(c1ccc(Cl)cc1)c1ccccn1 (stereo not shown)	UniProtKB P31390	8.15
Clc1ccc(C(CCN(CCCCc2c[nH]cn2)CCCCc2c[nH]cn2)c2ccccn2)cc1 (stereo not shown)	UniProtKB P31390	7.08
C[N+](C)(CCCCc1c[nH]cn1)CCC(c1ccc(Cl)cc1)c1ccccn1 (stereo not shown)	UniProtKB P31390	6.92

(I) N=C(CCCc1c[nH]cn1)NCCC(c1ccc(Cl)cc1)c1ccccn1 (stereo not shown)
(II) CN(CCCc1c[nH]cn1)CCC(c1ccc(Cl)cc1)c1ccccn1 (stereo not shown)
# input # return whichever of I and II has the smaller pKi Response format: the label of the selected entry.
# output I
(I: 6.70, II: 8.00)

(P) CN(CCC(c1ccc(Cl)cc1)c1ccccn1)C(=O)CCc1c[nH]cn1 (stereo not shown)
(Q) Clc1ccc(C(CCNCCCCc2c[nH]cn2)c2ccccn2)cc1 (stereo not shown)
# input Rank P against Q by their pKi values and give the higher one. Identify your pick by its label.
# output Q
(Q: 6.60, P: 6.00)

###

Record: Ki reported on H3 receptors (Cavia porcellus).
reported.property: Ki (nM)

(a) Clc1ccc(C(NCCCCc2c[nH]cn2)c2ccccc2)cc1 (centres unmarked)
(b) O=C(CC(c1ccc(Br)cc1)c1ccccn1)NCCCCc1c[nH]cn1 (centres unmarked)
(c) O=C(NCCC(c1ccc(Cl)cc1)c1ccccn1)OCCc1c[nH]cn1 (centres unmarked)
# input Please rank these molecules by Ki in descending order. API: response body holds the labels in the requested order.
# output c, b, a

(1) O=C(CCc1c[nH]cn1)NCCC(c1ccc(Cl)cc1)c1ccccn1 (centres unmarked)
(2) O=C(CC(c1ccc(Cl)cc1)c1cccc[n+]1[O-])NCCCCc1c[nH]cn1 (centres unmarked)
# input So which one has the bigger Ki here, 1 or 2 ? Give the chosen item's label as your response.
# output 1

(1) CN(CCC(c1ccc(Cl)cc1)c1ccccn1)C(=O)CCc1c[nH]cn1 (centres unmarked)
(2) N=C(CC(c1ccc(Cl)cc1)c1ccccn1)NCCc1c[nH]cn1 (centres unmarked)
(3) O=C(CC(c1ccc(Cl)cc1)c1ccccn1)NCCc1c[nH]cn1 (centres unmarked)
# input Would you mind ranking these molecules by ascending Ki? Could you list the labels in the order requested?
# output 2, 3, 1
(2: 8 nM, 3: 16 nM, 1: 260 nM)

(A) CN(CCCCc1c[nH]cn1)C(=O)CC(c1ccc(Cl)cc1)c1ccccn1 (centres unmarked)
(B) O=C(CC(c1ccc(Cl)cc1)c1ccccn1)NCCCCc1c[nH]cn1 (centres unmarked)
(C) Clc1ccc(C(NCCCCc2c[nH]cn2)c2ccc(Cl)cc2)cc1
# input Please order the records by their reported Ki, lowest number first. Put the labels in the requested order and write them down.
# output B, C, A
(B: 0.8 nM, C: 2 nM, A: 6.5 nM)

###

H3 receptors (Cavia porcellus, UniProt Q9JI35) measurements of Ki, listed per entry.
Sequence (Q9JI35 whole entry): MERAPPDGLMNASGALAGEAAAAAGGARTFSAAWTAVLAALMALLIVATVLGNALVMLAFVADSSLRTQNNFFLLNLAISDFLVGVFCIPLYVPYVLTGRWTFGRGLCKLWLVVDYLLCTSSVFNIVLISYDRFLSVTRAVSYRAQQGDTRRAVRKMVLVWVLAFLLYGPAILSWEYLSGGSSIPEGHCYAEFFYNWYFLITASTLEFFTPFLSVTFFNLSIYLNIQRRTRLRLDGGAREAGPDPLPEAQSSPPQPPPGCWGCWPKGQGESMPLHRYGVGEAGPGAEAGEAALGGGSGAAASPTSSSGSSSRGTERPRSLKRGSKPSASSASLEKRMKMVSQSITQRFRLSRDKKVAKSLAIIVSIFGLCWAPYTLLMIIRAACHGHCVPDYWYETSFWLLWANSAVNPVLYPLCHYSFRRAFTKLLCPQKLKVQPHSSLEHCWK
reported.property: Ki (nM)

molecule	Ki (nM)
O=C(CC(c1ccccc1)c1ccccc1)NCCCCc1c[nH]cn1	36
O=C(/C=C(\c1ccc(Cl)cc1)c1ccccn1)NCCc1c[nH]cn1	37

(1) Clc1ccc(C(CCN(CCCCc2c[nH]cn2)CCCCc2c[nH]cn2)c2ccccn2)cc1 (stereo not drawn)
(2) O=C(NCCCCc1c[nH]cn1)C(c1ccc(Cl)cc1)c1ccc(Cl)cc1
(3) Clc1ccc(C(CCNCCCc2c[nH]cn2)c2ccccn2)cc1 (stereo not drawn)
(4) Clc1ccc(C(CCNCCc2c[nH]cn2)c2ccccn2)cc1 (stereo not drawn)
# input Order each entry by recorded Ki, climbing from the minimum. Please list the labels in the order you were asked to rank them.
# output 1, 2, 4, 3
(1: 23 nM, 2: 33.5 nM, 4: 56 nM, 3: 240 nM)
